protocolNotes: protein stability index of a GFP-peptide fusion (GPS, HEK-293T) (PSI 1-6); higher = more stable;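 further: 24-mer peptide tiles fused after GFP, lentivirally expressed, FACS-sorted into six equal bins by GFP/DsRed ratio, decoded by Illumina sequencing, PSI is the read-weighted mean bin number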
conditionDescription: treatment: MLN4924 1 uM, 8 h; c terminus: a fixed tail appended
Would you kindly list protein stability index for each of these sequences?
# answer = number (no unit)

For this sequence ( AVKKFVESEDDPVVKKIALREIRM [CDKL4] ), measured protein stability index is 2.98

For this sequence ( NGSGDMIFEGNSEKEIPVLNELPV [CPXM2] ), measured protein stability index is 5.01

For this sequence ( PWLRQDPMPLAPTRSHLWEAAQVV [TRIB3] ), measured protein stability index is 2.27

For this sequence ( QLPRPPIVGGNKGRSGPLPPVPLG [WAS] ), measured protein stability index is 3.83
